TEST SUMMARY: Plasma pharmacokinetics (LC-MS/MS)
Assay type: in vivo, human
ASSAY SETUP: human, plasma, oral, 200 mg, C1D1, 200 mg QD, n=3; read-out: AUC0-t, Median (Min, max)
MEASUREMENT LABEL: AUC(0-t)
Record the result as a number with its unit.

Request: Dear colleague, I am looking for the recorded AUC(0-t) of the following compound: CC1(N)CCN(c2cccnc2NC(=O)c2nc(-c3ncccc3C(F)(F)F)cnc2N)CC1 [LXS196]
Result: 18900 ng·h/mL

----------
TEST SUMMARY: Plasma pharmacokinetics (LC-MS/MS)
Type: in vivo, human
ASSAY SETUP: human, plasma, oral, 200 mg, C1D1, 200 mg BID, n=6; read-out: T1/2, Mean (SD) (converted)
MEASUREMENT LABEL: half-life (h)
Give the value in h but do not write h after it.

Request: What does the data say about its half-life? Entry: CC1(N)CCN(c2cccnc2NC(=O)c2nc(-c3ncccc3C(F)(F)F)cnc2N)CC1
Result: 13.1

----------
TEST SUMMARY: Plasma pharmacokinetics (LC-MS/MS)
Type: in vivo, human
ASSAY SETUP: human, plasma, oral, 300 mg, C1D15, 300 mg BID, n=17; read-out: Cmax, Geo-mean
MEASUREMENT LABEL: Cmax (ng/mL)
Write down the numeric answer in ng/mL and omit the unit.

Request: Requested read-out: Cmax. Entry: CC1(N)CCN(c2cccnc2NC(=O)c2nc(-c3ncccc3C(F)(F)F)cnc2N)CC1 [LXS196]
Result: 2800

----------
TEST SUMMARY: Plasma pharmacokinetics (LC-MS/MS)
Assay type: in vivo, human
ASSAY SETUP: human, plasma, oral, 300 mg, C1D1, 300 mg BID, n=16; read-out: AUCinf, Geo-mean
MEASUREMENT LABEL: AUC(0-inf)
Kindly format the answer as number then unit.

Request: Query (compound): CC1(N)CCN(c2cccnc2NC(=O)c2nc(-c3ncccc3C(F)(F)F)cnc2N)CC1 [LXS196] ; field requested: AUC(0-inf)
Result: 30900 ng·h/mL

----------
TEST SUMMARY: Plasma pharmacokinetics (LC-MS/MS)
Format: in vivo, human
ASSAY SETUP: human, plasma, oral, 300 mg, C1D1, 300 mg BID, n=16; read-out: T1/2, Median (Min, max) (converted)
MEASUREMENT LABEL: half-life
Answer format: number, then unit.

Request: Param item = CC1(N)CCN(c2cccnc2NC(=O)c2nc(-c3ncccc3C(F)(F)F)cnc2N)CC1 [LXS196] ; retrieve measured half-life.
Result: 11.8 h

----------
TEST SUMMARY: Plasma pharmacokinetics (LC-MS/MS)
Type: in vivo, human
ASSAY SETUP: human, plasma, oral, 400 mg, C1D15, 400 mg BID, n=4; read-out: AUC0-t, Median (Min, max)
MEASUREMENT LABEL: AUC(0-t) (ng·h/mL)
Report the figure in ng·h/mL without appending any unit label.

Request: Give the measured AUC(0-t) of CC1(N)CCN(c2cccnc2NC(=O)c2nc(-c3ncccc3C(F)(F)F)cnc2N)CC1 .
Result: 16000

----------
TEST SUMMARY: Plasma pharmacokinetics (LC-MS/MS)
Assay type: in vivo, human
ASSAY SETUP: human, plasma, oral, 500 mg, C1D1, 500 mg QD, n=10; read-out: Tmax, Median (Min, max)
MEASUREMENT LABEL: Tmax (h)
// units = h; emit number, no label

Request: Tell me the measured Tmax of CC1(N)CCN(c2cccnc2NC(=O)c2nc(-c3ncccc3C(F)(F)F)cnc2N)CC1 [LXS196] , please.
Result: 1.03

----------
TEST SUMMARY: Plasma pharmacokinetics (LC-MS/MS)
Format: in vivo, human
ASSAY SETUP: human, plasma, oral, 200 mg, C1D15, 200 mg BID, n=5; read-out: AUC0-t, Mean (SD)
MEASUREMENT LABEL: AUC(0-t) (ng·h/mL)
Form entry: value (ng·h/mL) — number only.

Request: Please give the measured AUC(0-t) for this molecule: CC1(N)CCN(c2cccnc2NC(=O)c2nc(-c3ncccc3C(F)(F)F)cnc2N)CC1
Result: 16900

----------
TEST SUMMARY: Plasma pharmacokinetics (LC-MS/MS)
Format: in vivo, human
ASSAY SETUP: human, plasma, oral, 400 mg, C1D1, 400 mg BID, n=5; read-out: Cmax, Median (Min, max)
Experimental: In the dose escalation part of the study, PK samples were collected at various pre- and post-dose time points on C1D1, D2, D3, D15 and D16. Drug concentrations were assessed using a validated liquid chromatography-tandem mass spectrometry assay.
MEASUREMENT LABEL: Cmax (ng/mL)
The reply should be a number in ng/mL, with the unit left off.

Request: Form field: reported Cmax of CC1(N)CCN(c2cccnc2NC(=O)c2nc(-c3ncccc3C(F)(F)F)cnc2N)CC1
Result: 3850

----------
TEST SUMMARY: Plasma pharmacokinetics (LC-MS/MS)
Type: in vivo, human
ASSAY SETUP: human, plasma, oral, 300 mg, C1D1, 300 mg QD, n=15; read-out: T1/2, Median (Min, max) (converted)
MEASUREMENT LABEL: half-life (h)
Only the number, expressed in h, is required.

Request: Find the recorded half-life belonging to CC1(N)CCN(c2cccnc2NC(=O)c2nc(-c3ncccc3C(F)(F)F)cnc2N)CC1 and report it.
Result: 11.1

----------
TEST SUMMARY: Plasma pharmacokinetics (LC-MS/MS)
Assay type: in vivo, human
ASSAY SETUP: human, plasma, oral, 800 mg, C1D1, 800 mg QD, n=1; read-out: Cmax, Mean (SD)
MEASUREMENT LABEL: Cmax (ng/mL)
Reply with just the number (in ng/mL).

Request: So what does the record say about Cmax for CC1(N)CCN(c2cccnc2NC(=O)c2nc(-c3ncccc3C(F)(F)F)cnc2N)CC1 [LXS196] ?
Result: 6080

----------
TEST SUMMARY: Plasma pharmacokinetics (LC-MS/MS)
Format: in vivo, human
ASSAY SETUP: human, plasma, oral, 400 mg, C1D1, 400 mg BID, n=5; read-out: T1/2, Median (Min, max) (converted)
MEASUREMENT LABEL: half-life (h)
# unit: h | format: bare number

Request: Item under review: CC1(N)CCN(c2cccnc2NC(=O)c2nc(-c3ncccc3C(F)(F)F)cnc2N)CC1 . Reported half-life?
Result: 14.5

----------
TEST SUMMARY: Plasma pharmacokinetics (LC-MS/MS)
Format: in vivo, human
ASSAY SETUP: human, plasma, oral, 300 mg, C1D15, 300 mg QD, n=13; read-out: AUC0-t, Median (Min, max)
MEASUREMENT LABEL: AUC(0-t)
Please state the number and follow it with the unit.

Request: What measured AUC(0-t) goes with CC1(N)CCN(c2cccnc2NC(=O)c2nc(-c3ncccc3C(F)(F)F)cnc2N)CC1 [LXS196] ?
Result: 27900 ng·h/mL

----------
TEST SUMMARY: Plasma pharmacokinetics (LC-MS/MS)
Format: in vivo, human
ASSAY SETUP: human, plasma, oral, 200 mg, C1D1, 200 mg QD, n=3; read-out: Tmax, Median (Min, max)
MEASUREMENT LABEL: Tmax (h)
Please give a number only; it is taken to be in h.

Request: Look at this compound and give its reported Tmax. CC1(N)CCN(c2cccnc2NC(=O)c2nc(-c3ncccc3C(F)(F)F)cnc2N)CC1
Result: 1

----------
TEST SUMMARY: Plasma pharmacokinetics (LC-MS/MS)
Assay type: in vivo, human
ASSAY SETUP: human, plasma, oral, 200 mg, C1D1, 200 mg BID, n=6; read-out: AUCinf, Geo-mean
MEASUREMENT LABEL: AUC(0-inf)
A bare number is not enough; add the unit after it.

Request: For the compound CC1(N)CCN(c2cccnc2NC(=O)c2nc(-c3ncccc3C(F)(F)F)cnc2N)CC1 , what AUC(0-inf) is on record?
Result: 24000 ng·h/mL

----------
TEST SUMMARY: Plasma pharmacokinetics (LC-MS/MS)
Format: in vivo, human
ASSAY SETUP: human, plasma, oral, 100 mg, C1D1, 100 mg QD, n=2; read-out: T1/2, Geo-mean (converted)
MEASUREMENT LABEL: half-life (h)
Lab book: enter the figure in h, no units written.

Request: Quick one: half-life for CC1(N)CCN(c2cccnc2NC(=O)c2nc(-c3ncccc3C(F)(F)F)cnc2N)CC1 ?
Result: 8.43

----------
TEST SUMMARY: Plasma pharmacokinetics (LC-MS/MS)
Type: in vivo, human
ASSAY SETUP: human, plasma, oral, 100 mg, C1D1, 100 mg QD, n=3; read-out: Cmax, Median (Min, max)
MEASUREMENT LABEL: Cmax (ng/mL)
State just the number; it will be interpreted in ng/mL.

Request: For CC1(N)CCN(c2cccnc2NC(=O)c2nc(-c3ncccc3C(F)(F)F)cnc2N)CC1 , what is its reported Cmax?
Result: 811
